# target_or_test_system: HCV polymerase (NS5B) type 1a (Hepatitis C virus genotype 1a, UniProt P26664)
# Construct: made in house; host or cells: Escherichia coli (by the 'similar method' of the 1b enzyme)
# method_description: Assay of enzyme (HCV polymerase) inhibitory activity, type 1a enzyme
# Type: biochemical, HCV type 1a (cloned from the blood of patients)
# recorded_conditions: HCV polymerase inhibitory activity IC50, 1a, type 1a enzyme
pIC50: −log10 of the molar value.
Listed below: pIC50 values for each entry.
quantity_name: pIC50

{"smiles_string": "O=C(NCc1ccc(OC(F)(F)F)cc1)[C@H]1CN(c2nc3ncncc3s2)CCN1S(=O)(=O)c1ccc(OC(F)F)cc1", "target_or_test_system": "HCV polymerase (NS5B) type 1a (Hepatitis C virus genotype 1a, UniProt P26664)", "quantity_name": "pIC50", "result": "> 7.00"}
{"smiles_string": "O=C(NCc1ccc(OC(F)(F)F)cc1)[C@H]1CN(c2ccn3ncnc3n2)CCN1S(=O)(=O)c1ccc(OC(F)(F)F)cc1", "target_or_test_system": "HCV polymerase (NS5B) type 1a (Hepatitis C virus genotype 1a, UniProt P26664)", "quantity_name": "pIC50", "result": "> 7.00"}
{"smiles_string": "CCCc1ccc(CNC(=O)[C@H]2CN(C(=O)Nc3ccccc3)CCN2S(=O)(=O)c2ccc(OC(F)(F)F)cc2)cc1", "target_or_test_system": "HCV polymerase (NS5B) type 1a (Hepatitis C virus genotype 1a, UniProt P26664)", "quantity_name": "pIC50", "result": "6.00 to 7.00"}
{"smiles_string": "CCCCc1ccc(CNC(=O)[C@H]2CN(c3cnc4cncc(C(=O)O)c4n3)CCN2S(=O)(=O)c2ccc(CC)cc2)cc1", "target_or_test_system": "HCV polymerase (NS5B) type 1a (Hepatitis C virus genotype 1a, UniProt P26664)", "quantity_name": "pIC50", "result": "> 7.00"}
{"smiles_string": "CCC(F)(F)c1ccc(CNC(=O)[C@H]2CN(c3cnc4cncnc4n3)CCN2S(=O)(=O)c2ccc(Br)s2)cc1", "target_or_test_system": "HCV polymerase (NS5B) type 1a (Hepatitis C virus genotype 1a, UniProt P26664)", "quantity_name": "pIC50", "result": "> 7.00"}
{"smiles_string": "N#Cc1cncc2ncc(N3CCN(S(=O)(=O)c4ccc(OC(F)(F)F)cc4)[C@@H](C(=O)NCc4ccc(OC(F)(F)F)cc4)C3)nc12", "target_or_test_system": "HCV polymerase (NS5B) type 1a (Hepatitis C virus genotype 1a, UniProt P26664)", "quantity_name": "pIC50", "result": "> 7.00"}

###

# target_or_test_system: HCV polymerase (NS5B) type 1b (Hepatitis C virus genotype 1b)
# Construct: a region encoding NS5B (J Virol 1991 March, 65(3), 1105-13, 544 amino acids after deletion of 47 amino acids on the C-terminal); 6xHis (C); made in house; host or cells: Escherichia coli
# method_description: Assay of enzyme (HCV polymerase) inhibitory activity, type 1b enzyme
# Format: biochemical, HCV BK strain (type 1b)
# recorded_conditions: HCV polymerase inhibitory activity (IC50), 1b, type 1b enzyme 0.5 μg/ml, 25° C., 60 min
Overview of recorded IC50 for various compounds

{"compound": "CCCc1ccc(CNC(=O)[C@H]2CN(c3cnc(C(=O)O)cn3)CCN2S(=O)(=O)c2ccc(CCC)cc2)cc1", "IC50": "< 100 nM"}
{"compound": "CCOC(=O)Cn1nnc(CC(=O)N2CCN(S(=O)(=O)c3ccc(OC(F)(F)F)cc3)[C@@H](C(=O)NCc3ccc(C(F)(F)CC)cc3)C2)n1", "IC50": "< 100 nM"}
{"compound": "O=C(NCc1nc2ccccc2o1)[C@H]1CN(c2cnc3cncnc3n2)CCN1S(=O)(=O)c1ccc(OC(F)(F)F)cc1", "IC50": "100 to 1000 nM"}
{"compound": "CC(C)c1ccc(CNC(=O)[C@H]2CN(C(=O)Cn3nnc(CC(=O)O)n3)CCN2S(=O)(=O)c2ccc(C(F)(F)F)cc2)cc1", "IC50": "< 100 nM"}
{"compound": "CC(=O)N1CCN(S(=O)(=O)c2ccc(OC(F)(F)F)c(I)c2)[C@@H](C(=O)NCc2ccc(C(C)C)cc2)C1", "IC50": "< 100 nM"}
{"compound": "CC(=O)N1CCN(S(=O)(=O)c2ccc(C(C)C)cc2)C(C(=O)NCc2ccc(C(C)C)cc2)C1 (centres unmarked)", "IC50": "100 to 1000 nM"}
{"compound": "CC(C)c1ccc(CNC(=O)[C@H]2CN(C(=O)CCC(=O)O)CCN2S(=O)(=O)c2ccc(C(F)(F)F)cc2)cc1", "IC50": "> 1000 nM"}
{"compound": "CN(C)c1ccc(CNC(=O)C2CN(CC(=O)O)CCN2S(=O)(=O)c2ccc(I)cc2)cc1 (centres unmarked)", "IC50": "> 1000 nM"}
{"compound": "CC(=O)N1CCN(S(=O)(=O)c2ccc3c(c2)CCC3)[C@@H](C(=O)NCc2ccc(C(C)C)cc2)C1", "IC50": "100 to 1000 nM"}
{"compound": "CC(C)c1ccc(CNC(=O)[C@H]2CN(C(=O)NCc3ccccc3)CCN2S(=O)(=O)c2ccc(C(F)(F)F)cc2)cc1", "IC50": "> 1000 nM"}
{"compound": "CCC(F)(F)c1ccc(CNC(=O)[C@H]2CN(c3cnc(CO)cn3)CCN2S(=O)(=O)c2ccc(OC(F)(F)F)cc2)cc1", "IC50": "< 100 nM"}
{"compound": "CCCc1ccc(CNC(=O)[C@H]2CN(c3nc(C)c(CO)s3)CCN2S(=O)(=O)c2ccc(OC(F)(F)F)cc2)cc1", "IC50": "< 100 nM"}
{"compound": "CC(=O)N1CCN(S(=O)(=O)c2ccc(C(C)C)cc2)[C@@H](C(=O)NCc2ccc(C(C)(F)F)cc2)C1", "IC50": "100 to 1000 nM"}
{"compound": "O=C(NCc1ccc(OC(F)(F)F)cc1)[C@H]1CN(c2cnc3cncnc3n2)CCN1S(=O)(=O)c1ccc(OC(F)(F)F)cc1", "IC50": "< 100 nM"}

###

Each entry below lists one item and its recorded pIC50 value.
# target_or_test_system: HCV polymerase (NS5B) type 1a (Hepatitis C virus genotype 1a)
# Construct: made in house; host or cells: Escherichia coli (by the 'similar method' of the 1b enzyme)
# method_description: Assay of enzyme (HCV polymerase) inhibitory activity, type 1a enzyme
# Format: biochemical, HCV type 1a (cloned from the blood of patients)
# recorded_conditions: HCV polymerase inhibitory activity (IC50), 1a, type 1a enzyme 1.5 μg/ml, 25° C., 60 min
pIC50: −log10 of the molar value.

{"compound": "CC(=O)N1CCN(S(=O)(=O)c2ccc(C(C)C)cc2)C(C(=O)NCc2ccc(C(C)C)cc2)C1 (stereo not shown) [Example 117]", "pIC50": "6.00 to 7.00"}
{"compound": "CCCc1ccc(CNC(=O)[C@H]2CN(c3nc(C)c(C(=O)O)s3)CCN2S(=O)(=O)c2ccc(OC(F)(F)F)cc2)cn1 [Example 388]", "pIC50": "6.00 to 7.00"}
{"compound": "COCc1ccc(S(=O)(=O)N2CCN(C(C)=O)CC2C(=O)NCc2ccc(C(F)(F)F)cc2)cc1 (stereo not shown) [Example 143]", "pIC50": "< 6.00"}
{"compound": "CCCc1ccc(S(=O)(=O)N2CCN(C(=O)Nc3cccc(OCC(=O)OCC)c3)C[C@@H]2C(=O)NCc2ccc(C(C)C)cc2)cc1 [Example 281]", "pIC50": "6.00 to 7.00"}

###

Quick list: IC50 per entry.
# target_or_test_system: HCV polymerase (NS5B) type 1b (Hepatitis C virus genotype 1b)
# Construct: a region encoding NS5B (J Virol 1991 March, 65(3), 1105-13, 544 amino acids after deletion of 47 amino acids on the C-terminal); 6xHis (C); made in house; host or cells: Escherichia coli
# method_description: Assay of enzyme (HCV polymerase) inhibitory activity, type 1b enzyme
# Format: biochemical, HCV BK strain (type 1b)
# recorded_conditions: HCV polymerase inhibitory activity (IC50), 1b, type 1b enzyme 0.5 μg/ml, 25° C., 60 min
Where a name gives a salt, the structure may show the parent alone.
quantity_name: IC50

{"molecule": "CNC(=O)c1sc(N2CCN(S(=O)(=O)c3ccc(OC(F)(F)F)cc3)[C@@H](C(=O)NCc3ccc(C(C)C)cc3)C2)nc1C", "target_or_test_system": "HCV polymerase (NS5B) type 1b (Hepatitis C virus genotype 1b)", "quantity_name": "IC50", "result": "< 100 nM"}
{"molecule": "CC(C)c1ccc(CNC(=O)[C@H]2CN(C(=O)CN3CCOCC3)CCN2S(=O)(=O)c2ccc(C(F)(F)F)cc2)cc1", "target_or_test_system": "HCV polymerase (NS5B) type 1b (Hepatitis C virus genotype 1b)", "quantity_name": "IC50", "result": "100 to 1000 nM"}
{"molecule": "CC(C)(C)c1ccc(CNC(=O)[C@H]2CN(c3cnc4c(n3)NC(=O)OC4)CCN2S(=O)(=O)c2ccc(OC(F)(F)F)cc2)cc1", "target_or_test_system": "HCV polymerase (NS5B) type 1b (Hepatitis C virus genotype 1b)", "quantity_name": "IC50", "result": "< 100 nM"}
{"molecule": "COc1ccc(S(=O)(=O)N2CCN(C(C)=O)C[C@@H]2C(=O)NCc2ccc(C(C)C)cc2)cc1", "target_or_test_system": "HCV polymerase (NS5B) type 1b (Hepatitis C virus genotype 1b)", "quantity_name": "IC50", "result": "100 to 1000 nM"}
{"molecule": "CCCN(CCC)CC(=O)N1CCN(S(=O)(=O)c2ccc(I)cc2)C(C(=O)NCc2ccc(N(C)C)cc2)C1 (centres unmarked)", "target_or_test_system": "HCV polymerase (NS5B) type 1b (Hepatitis C virus genotype 1b)", "quantity_name": "IC50", "result": "> 1000 nM"}
{"molecule": "CC(C)c1ccc(CNC(=O)[C@H]2CN(C(=O)Nc3ccc(N(C)C)cc3)CCN2S(=O)(=O)c2ccc(C(F)(F)F)cc2)cc1", "target_or_test_system": "HCV polymerase (NS5B) type 1b (Hepatitis C virus genotype 1b)", "quantity_name": "IC50", "result": "100 to 1000 nM"}
{"molecule": "CC(=O)N1CCN(S(=O)(=O)c2ccc(OC(C)C)cc2)C(C(=O)NCc2ccc(C(F)(F)F)cc2)C1 (centres unmarked)", "target_or_test_system": "HCV polymerase (NS5B) type 1b (Hepatitis C virus genotype 1b)", "quantity_name": "IC50", "result": "> 1000 nM"}
{"molecule": "CN(C)c1ccc(CNC(=O)[C@H]2CN(C(=O)CN)CCN2S(=O)(=O)c2ccc(I)cc2)cc1 [Example 157, hydrochloride]", "target_or_test_system": "HCV polymerase (NS5B) type 1b (Hepatitis C virus genotype 1b)", "quantity_name": "IC50", "result": "> 1000 nM"}
{"molecule": "CC(=O)N1CCN(S(=O)(=O)c2ccc(C(C)C)cc2)[C@@H](C(=O)NCCc2ccc(Cl)cc2)C1", "target_or_test_system": "HCV polymerase (NS5B) type 1b (Hepatitis C virus genotype 1b)", "quantity_name": "IC50", "result": "> 1000 nM"}
{"molecule": "CC(=O)NCC(=O)N1CCN(S(=O)(=O)c2ccc(C(F)(F)F)cc2)[C@@H](C(=O)NCc2ccc(C(C)C)cc2)C1", "target_or_test_system": "HCV polymerase (NS5B) type 1b (Hepatitis C virus genotype 1b)", "quantity_name": "IC50", "result": "100 to 1000 nM"}
{"molecule": "CCC(F)(F)c1ccc(CNC(=O)[C@H]2CN(C(=O)Nc3nnc(C(=O)N4CC[C@@H](O)C4)s3)CCN2S(=O)(=O)c2ccc(OC(F)(F)F)cc2)cc1", "target_or_test_system": "HCV polymerase (NS5B) type 1b (Hepatitis C virus genotype 1b)", "quantity_name": "IC50", "result": "100 to 1000 nM"}
{"molecule": "CC(=O)N1CCN(S(=O)(=O)c2cccc(Br)c2)C(C(=O)NCc2ccc(C(F)(F)F)cc2)C1 (centres unmarked)", "target_or_test_system": "HCV polymerase (NS5B) type 1b (Hepatitis C virus genotype 1b)", "quantity_name": "IC50", "result": "> 1000 nM"}
{"molecule": "CN(C)CC(=O)N1CCN(S(=O)(=O)c2ccc(I)cc2)C(C(=O)NCc2ccc(N(C)C)cc2)C1 (centres unmarked)", "target_or_test_system": "HCV polymerase (NS5B) type 1b (Hepatitis C virus genotype 1b)", "quantity_name": "IC50", "result": "> 1000 nM"}
{"molecule": "CC(C)c1ccc(S(=O)(=O)N2CCN(c3nc4c(s3)Cc3ccccc3-4)CC2C(=O)NCc2ccc(C(F)(F)F)cc2)cc1 (centres unmarked)", "target_or_test_system": "HCV polymerase (NS5B) type 1b (Hepatitis C virus genotype 1b)", "quantity_name": "IC50", "result": "> 1000 nM"}
